- Tested on: NCI-H1993
- method: relative viability (nuclei count vs DMSO), 5 days (fraction); higher = more cells survive
- run_parameters: first compound 0.0002 µM

- compound: "CC(=O)O[C@@]12CO[C@@H]1C[C@H](O)[C@@]1(C)C(=O)[C@H](O)C3=C(C)[C@@H](OC(=O)[C@H](O)[C@@H](NC(=O)OC(C)(C)C)c4ccccc4)C[C@@](O)([C@@H](OC(=O)c4ccccc4)[C@H]21)C3(C)C [Docetaxel] + CC(C)C[C@H](NC(=O)[C@H](Cc1ccccc1)NC(=O)c1cnccn1)B(O)O [Bortezomib] (partner 0.002 µM)"
  relative viability: 0.961
- compound: "CC(=O)O[C@@]12CO[C@@H]1C[C@H](O)[C@@]1(C)C(=O)[C@H](O)C3=C(C)[C@@H](OC(=O)[C@H](O)[C@@H](NC(=O)OC(C)(C)C)c4ccccc4)C[C@@](O)([C@@H](OC(=O)c4ccccc4)[C@H]21)C3(C)C [Docetaxel] + CC1(C)CCC(c2ccc(Cl)cc2)=C(CN2CCN(c3ccc(C(=O)NS(=O)(=O)c4ccc(N[C@H](CCN5CCOCC5)CSc5ccccc5)c(S(=O)(=O)C(F)(F)F)c4)cc3)CC2)C1 [Navitoclax] (partner 0.5 µM)"
  relative viability: 0.945
- compound: "CC(=O)O[C@@]12CO[C@@H]1C[C@H](O)[C@@]1(C)C(=O)[C@H](O)C3=C(C)[C@@H](OC(=O)[C@H](O)[C@@H](NC(=O)OC(C)(C)C)c4ccccc4)C[C@@](O)([C@@H](OC(=O)c4ccccc4)[C@H]21)C3(C)C [Docetaxel] + Nc1nc2[nH]cc(CCc3ccc(C(=O)N[C@@H](CCC(=O)O)C(=O)O)cc3)c2c(=O)[nH]1 [Pemetrexed] (partner 0.2 µM)"
  relative viability: 0.641

---

- Tested on: HCC-78
- method: relative viability (nuclei count vs DMSO), 5 days (fraction); higher = more cells survive
- run_parameters: first compound 0.5 µM
Exam item: assign rule met to entries whose relative viability is below 0.3 and rule not met to entries at or above 0.3. Note that a value of exactly 0.3 receives rule not met.

- molecule: "COc1cc2nccc(Oc3ccc(NC(=O)Nc4cc(C)on4)c(Cl)c3)c2cc1OC [Tivozanib] + CC(=O)c1c(C)c2cnc(Nc3ccc(N4CCNCC4)cn3)nc2n(C2CCCC2)c1=O [Palbociclib] (partner 0.5 µM)"
  assigned_category: "rule not met"
- molecule: "Nc1ccn([C@@H]2O[C@H](CO)[C@@H](O)[C@@H]2O)c(=O)n1 [Cytarabine] + CS(=O)(=O)N1CCN(Cc2cc3nc(-c4cccc5[nH]ncc45)nc(N4CCOCC4)c3s2)CC1 [Pictilisib] (partner 1 µM)"
  assigned_category: "rule met"
- molecule: "Nc1ccn([C@@H]2O[C@H](CO)[C@@H](O)[C@@H]2O)c(=O)n1 [Cytarabine] + Nc1ncn([C@H]2C[C@H](O)[C@@H](CO)O2)c(=O)n1 [Decitabine] (partner 2 µM)"
  assigned_category: "rule not met"
- molecule: "COc1cc2nccc(Oc3ccc(NC(=O)Nc4cc(C)on4)c(Cl)c3)c2cc1OC [Tivozanib] + N=C(N)NC(=N)NCCc1ccccc1 [Phenformin] (partner 250 µM)"
  assigned_category: "rule not met"
- molecule: "COc1cc2nccc(Oc3ccc(NC(=O)Nc4cc(C)on4)c(Cl)c3)c2cc1OC [Tivozanib] + CS(=O)(=O)N1CCN(Cc2cc3nc(-c4cccc5[nH]ncc45)nc(N4CCOCC4)c3s2)CC1 [Pictilisib] (partner 1 µM)"
  assigned_category: "rule met"
- molecule: "Nc1ccn([C@@H]2O[C@H](CO)[C@@H](O)[C@@H]2O)c(=O)n1 [Cytarabine] + COc1cccc2cc(-c3nc([C@H]4CC[C@H](C(=O)O)CC4)n4ncnc(N)c34)[nH]c12 [OSI-027] (partner 0.5 µM)"
  assigned_category: "rule met"
- molecule: "Nc1ccn([C@@H]2O[C@H](CO)[C@@H](O)[C@@H]2O)c(=O)n1 [Cytarabine] + N=C(N)NC(=N)NCCc1ccccc1 [Phenformin] (partner 250 µM)"
  assigned_category: "rule not met"
- molecule: "Nc1ccn([C@@H]2O[C@H](CO)[C@@H](O)[C@@H]2O)c(=O)n1 [Cytarabine] + Nc1nc2[nH]cc(CCc3ccc(C(=O)N[C@@H](CCC(=O)O)C(=O)O)cc3)c2c(=O)[nH]1 [Pemetrexed] (partner 0.2 µM)"
  assigned_category: "rule not met"

---

Overview of recorded relative viability for various compounds
- System: LCLC-103H
- method: relative viability (nuclei count vs DMSO), 5 days (fraction); higher = more cells survive
- run_parameters: first compound 0.002 µM

- compound: "CC(=O)O[C@@]12CO[C@@H]1C[C@H](O)[C@@]1(C)C(=O)[C@H](O)C3=C(C)[C@@H](OC(=O)[C@H](O)[C@@H](NC(=O)OC(C)(C)C)c4ccccc4)C[C@@](O)([C@@H](OC(=O)c4ccccc4)[C@H]21)C3(C)C [Docetaxel] + Cc1nc(Nc2ncc(C(=O)Nc3c(C)cccc3Cl)s2)cc(N2CCN(CCO)CC2)n1 [Dasatinib] (partner 0.075 µM)"
  relative viability: 0.337
- compound: "CC(=O)O[C@@]12CO[C@@H]1C[C@H](O)[C@@]1(C)C(=O)[C@H](O)C3=C(C)[C@@H](OC(=O)[C@H](O)[C@@H](NC(=O)OC(C)(C)C)c4ccccc4)C[C@@](O)([C@@H](OC(=O)c4ccccc4)[C@H]21)C3(C)C [Docetaxel] + NC(=O)Nc1cc(-c2cccc(F)c2)sc1C(=O)N[C@H]1CCCNC1 [AZD7762] (partner 0.2 µM)"
  relative viability: 0.654
- compound: "CC(=O)O[C@@]12CO[C@@H]1C[C@H](O)[C@@]1(C)C(=O)[C@H](O)C3=C(C)[C@@H](OC(=O)[C@H](O)[C@@H](NC(=O)OC(C)(C)C)c4ccccc4)C[C@@](O)([C@@H](OC(=O)c4ccccc4)[C@H]21)C3(C)C [Docetaxel] + C[C@@H](Oc1cc(-c2cnn(C3CCNCC3)c2)cnc1N)c1c(Cl)ccc(F)c1Cl [Crizotinib] (partner 1 µM)"
  relative viability: 0.776
- compound: "CC(=O)O[C@@]12CO[C@@H]1C[C@H](O)[C@@]1(C)C(=O)[C@H](O)C3=C(C)[C@@H](OC(=O)[C@H](O)[C@@H](NC(=O)OC(C)(C)C)c4ccccc4)C[C@@](O)([C@@H](OC(=O)c4ccccc4)[C@H]21)C3(C)C [Docetaxel] + COc1cc2c(Oc3ccc(NC(=O)C4(C(=O)Nc5ccc(F)cc5)CC4)cc3F)ccnc2cc1OCCCN1CCOCC1 [Foretinib] (partner 0.25 µM)"
  relative viability: 0.485
- compound: "CC(=O)O[C@@]12CO[C@@H]1C[C@H](O)[C@@]1(C)C(=O)[C@H](O)C3=C(C)[C@@H](OC(=O)[C@H](O)[C@@H](NC(=O)OC(C)(C)C)c4ccccc4)C[C@@](O)([C@@H](OC(=O)c4ccccc4)[C@H]21)C3(C)C [Docetaxel] + CS(=O)(=O)N1CCN(Cc2cc3nc(-c4cccc5[nH]ncc45)nc(N4CCOCC4)c3s2)CC1 [Pictilisib] (partner 1 µM)"
  relative viability: 0.612

---

- Test system: HCC-15
- method: relative viability (nuclei count vs DMSO), 5 days (fraction); higher = more cells survive
- run_parameters: first compound 158.11 µM
assay_metric: relative viability

- compound: "O=C(O)CCCCC(CCSCc1ccccc1)SCc1ccccc1 (centres undefined) [CPI-613] + CC(=O)Nc1cccc(-n2c(=O)n(C3CC3)c(=O)c3c(Nc4ccc(I)cc4F)n(C)c(=O)c(C)c32)c1 [Trametinib] (partner 0.02 µM)"
  assay_metric: "relative viability"
  value_observed: 0.167
- compound: "O=C(O)CCCCC(CCSCc1ccccc1)SCc1ccccc1 (centres undefined) [CPI-613] + O=C(c1cc(Cc2n[nH]c(=O)c3ccccc23)ccc1F)N1CCN(C(=O)C2CC2)CC1 [Olaparib] (partner 8 µM)"
  assay_metric: "relative viability"
  value_observed: 0.178
- compound: "O=C(O)CCCCC(CCSCc1ccccc1)SCc1ccccc1 (centres undefined) [CPI-613] + Cc1nc(NC(=O)N2CCC[C@H]2C(N)=O)sc1-c1ccnc(C(C)(C)C(F)(F)F)c1 [Alpelisib] (partner 2 µM)"
  assay_metric: "relative viability"
  value_observed: 0.562
- compound: "O=C(O)CCCCC(CCSCc1ccccc1)SCc1ccccc1 (centres undefined) [CPI-613] + NC(=O)Nc1cc(-c2cccc(F)c2)sc1C(=O)N[C@H]1CCCNC1 [AZD7762] (partner 0.2 µM)"
  assay_metric: "relative viability"
  value_observed: 0.819

---

- System: PC-3 [JPC-3]
- method: relative viability (nuclei count vs DMSO), 5 days (fraction); higher = more cells survive
- run_parameters: first compound 0.002 µM
# relative viability values compiled below
assay_metric: relative viability

- molecule: "CC(=O)O[C@@]12CO[C@@H]1C[C@H](O)[C@@]1(C)C(=O)[C@H](O)C3=C(C)[C@@H](OC(=O)[C@H](O)[C@@H](NC(=O)OC(C)(C)C)c4ccccc4)C[C@@](O)([C@@H](OC(=O)c4ccccc4)[C@H]21)C3(C)C [Docetaxel] + COc1cc2c(Oc3ccc(NC(=O)C4(C(=O)Nc5ccc(F)cc5)CC4)cc3F)ccnc2cc1OCCCN1CCOCC1 [Foretinib] (partner 0.25 µM)"
  value_observed: 0.544
- molecule: "CC(=O)O[C@@]12CO[C@@H]1C[C@H](O)[C@@]1(C)C(=O)[C@H](O)C3=C(C)[C@@H](OC(=O)[C@H](O)[C@@H](NC(=O)OC(C)(C)C)c4ccccc4)C[C@@](O)([C@@H](OC(=O)c4ccccc4)[C@H]21)C3(C)C [Docetaxel] + Nc1ncn([C@H]2C[C@H](O)[C@@H](CO)O2)c(=O)n1 [Decitabine] (partner 2 µM)"
  value_observed: 0.666
- molecule: "CC(=O)O[C@@]12CO[C@@H]1C[C@H](O)[C@@]1(C)C(=O)[C@H](O)C3=C(C)[C@@H](OC(=O)[C@H](O)[C@@H](NC(=O)OC(C)(C)C)c4ccccc4)C[C@@](O)([C@@H](OC(=O)c4ccccc4)[C@H]21)C3(C)C [Docetaxel] + N=C(N)NC(=N)NCCc1ccccc1 [Phenformin] (partner 250 µM)"
  value_observed: 0.371
- molecule: "CC(=O)O[C@@]12CO[C@@H]1C[C@H](O)[C@@]1(C)C(=O)[C@H](O)C3=C(C)[C@@H](OC(=O)[C@H](O)[C@@H](NC(=O)OC(C)(C)C)c4ccccc4)C[C@@](O)([C@@H](OC(=O)c4ccccc4)[C@H]21)C3(C)C [Docetaxel] + O=C(c1cc(Cc2n[nH]c(=O)c3ccccc23)ccc1F)N1CCN(C(=O)C2CC2)CC1 [Olaparib] (partner 8 µM)"
  value_observed: 0.585
- molecule: "CC(=O)O[C@@]12CO[C@@H]1C[C@H](O)[C@@]1(C)C(=O)[C@H](O)C3=C(C)[C@@H](OC(=O)[C@H](O)[C@@H](NC(=O)OC(C)(C)C)c4ccccc4)C[C@@](O)([C@@H](OC(=O)c4ccccc4)[C@H]21)C3(C)C [Docetaxel] + CC1(C)CCC(c2ccc(Cl)cc2)=C(CN2CCN(c3ccc(C(=O)NS(=O)(=O)c4ccc(N[C@H](CCN5CCOCC5)CSc5ccccc5)c(S(=O)(=O)C(F)(F)F)c4)cc3)CC2)C1 [Navitoclax] (partner 0.5 µM)"
  value_observed: 0.527
